This collection of values is drawn from patent US8486939B2.

# experimentalSystem: p110δ/p85 (Homo sapiens, UniProt O00329)
# Sequence (O00329 whole entry, species assumed): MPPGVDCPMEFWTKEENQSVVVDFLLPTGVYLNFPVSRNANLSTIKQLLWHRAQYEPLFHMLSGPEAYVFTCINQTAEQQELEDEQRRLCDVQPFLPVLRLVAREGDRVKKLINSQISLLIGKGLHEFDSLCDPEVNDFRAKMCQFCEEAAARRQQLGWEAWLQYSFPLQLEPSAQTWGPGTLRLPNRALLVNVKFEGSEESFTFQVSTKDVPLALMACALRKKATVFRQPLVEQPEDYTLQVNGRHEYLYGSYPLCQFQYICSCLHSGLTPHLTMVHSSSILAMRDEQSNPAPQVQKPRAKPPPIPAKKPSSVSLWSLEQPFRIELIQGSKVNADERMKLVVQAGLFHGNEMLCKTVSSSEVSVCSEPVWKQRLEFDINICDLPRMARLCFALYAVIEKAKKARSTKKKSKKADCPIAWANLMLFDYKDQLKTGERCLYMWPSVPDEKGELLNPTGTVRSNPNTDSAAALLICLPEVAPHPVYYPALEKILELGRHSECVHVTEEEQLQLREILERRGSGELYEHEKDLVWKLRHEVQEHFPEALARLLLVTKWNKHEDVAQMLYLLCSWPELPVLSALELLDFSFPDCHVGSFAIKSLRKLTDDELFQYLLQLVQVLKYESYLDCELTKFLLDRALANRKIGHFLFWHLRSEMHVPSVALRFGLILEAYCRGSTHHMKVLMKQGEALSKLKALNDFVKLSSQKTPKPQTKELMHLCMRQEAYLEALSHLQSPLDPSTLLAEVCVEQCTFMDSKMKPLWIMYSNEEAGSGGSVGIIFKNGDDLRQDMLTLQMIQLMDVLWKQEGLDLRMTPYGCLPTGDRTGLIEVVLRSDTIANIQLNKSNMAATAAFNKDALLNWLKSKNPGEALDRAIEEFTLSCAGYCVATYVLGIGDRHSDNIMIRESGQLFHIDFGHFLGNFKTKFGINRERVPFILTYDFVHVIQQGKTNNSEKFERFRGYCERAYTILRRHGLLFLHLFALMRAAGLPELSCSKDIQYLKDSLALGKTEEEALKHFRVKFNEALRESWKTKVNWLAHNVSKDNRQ
# Sequence (P27986 whole entry partner, species assumed): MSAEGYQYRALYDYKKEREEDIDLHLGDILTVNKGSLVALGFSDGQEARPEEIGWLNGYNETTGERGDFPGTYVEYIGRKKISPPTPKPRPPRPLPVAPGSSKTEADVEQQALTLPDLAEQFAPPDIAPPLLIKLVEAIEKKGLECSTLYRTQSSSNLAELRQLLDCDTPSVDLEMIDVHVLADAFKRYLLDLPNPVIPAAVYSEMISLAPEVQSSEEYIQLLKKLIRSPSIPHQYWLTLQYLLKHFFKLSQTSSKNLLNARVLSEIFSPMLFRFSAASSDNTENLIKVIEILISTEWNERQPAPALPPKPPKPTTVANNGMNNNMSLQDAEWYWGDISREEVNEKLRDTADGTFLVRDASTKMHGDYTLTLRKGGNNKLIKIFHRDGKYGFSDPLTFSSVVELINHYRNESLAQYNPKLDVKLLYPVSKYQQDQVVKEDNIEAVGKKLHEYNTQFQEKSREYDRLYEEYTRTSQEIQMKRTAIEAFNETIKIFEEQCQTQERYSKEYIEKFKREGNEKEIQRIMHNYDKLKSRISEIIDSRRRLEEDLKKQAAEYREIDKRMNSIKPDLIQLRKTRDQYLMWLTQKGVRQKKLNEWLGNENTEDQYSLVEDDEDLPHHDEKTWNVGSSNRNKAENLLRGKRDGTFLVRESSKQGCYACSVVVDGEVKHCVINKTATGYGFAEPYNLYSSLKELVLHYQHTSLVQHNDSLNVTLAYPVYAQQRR
# methodNotes: Inhibition of isolated enzyme (lipid kinase assay, [γ33P]ATP, TLC)
# Format: biochemical
# runConditions: recombinant enzyme, 100 μM ATP, 1 hr room temperature, average of two experiments
Record form. Attribute: IC50. Fill in for each entry.

Known IC50 results, listed for orientation:
> print(dat)
                                inputsmiles  propertymeasured   valueobserved
1  COc1cccc2c1nc(C(F)F)n2-c1nc(Nc2ccc(Cl)nc2)nc(N2CCOCC2)n1              IC50        < 100 nM
2  FC(F)c1nc2ccccc2n1-c1nc(Nc2cnccn2)nc(N2CCOCC2)n1              IC50        < 100 nM
3  CS(=O)(=O)c1nc2ccccc2n1-c1nc(Nc2cccnc2)nc(N2CCOCC2)n1              IC50        < 100 nM
4  COc1ncc(-c2cc(N3CCOCC3)nc(-n3c(C(F)F)nc4c(OC)cccc43)n2)cn1              IC50  100 to 1000 nM
5  FC(F)c1nc2ccccc2n1-c1nc(Nc2cnc3ccccc3c2)nc(N2CCOCC2)n1              IC50  100 to 1000 nM

Record IC50 per entry; entries follow.
1. FC(F)c1nc2ccccc2n1-c1nc(Nc2cccnn2)nc(N2CCOCC2)n1
2. FC(F)c1nc2ccccc2n1-c1nc(-c2cccnc2)cc(N2CCOCC2)n1
3. COc1cccc2c1nc(C(F)F)n2-c1nc(Nc2cncnc2)nc(N2CCOCC2)n1
4. CSc1nc2ccccc2n1-c1nc(Nc2cccnc2)nc(N2CCOCC2)n1

[A]
< 100 nM
100 to 1000 nM
< 100 nM
100 to 1000 nM

---

propertyMeasured: melting point

> print(dat)
                                inputsmiles  valueobserved
1  FC(F)c1nc2ccccc2n1-c1nc(Sc2ccccc2)nc(N2CCOCC2)n1  245 to 248 °C

Record melting point per entry; entries follow.
1. FC(F)c1nc2ccccc2n1-c1nc(Nc2cnc3ccccc3c2)nc(N2CCOCC2)n1
2. COc1cccc2c1nc(C(F)F)n2-c1nc(-c2cccnc2)nc(N2CCOCC2)n1
3. FC(F)c1nc2ccccc2n1-c1nc(Nc2cccnc2)nc(N2CCOCC2)n1
4. CS(=O)(=O)c1nc2ccccc2n1-c1nc(Nc2cccnc2)nc(N2CCOCC2)n1

[A]
270 to 273 °C
208 to 210 °C
228 to 230 °C
208 to 211 °C

---

Record form. Attribute: IC50. Fill in for each entry.
# experimentalSystem: p110α/p85 (Homo sapiens)
# Sequence (P42336 whole entry): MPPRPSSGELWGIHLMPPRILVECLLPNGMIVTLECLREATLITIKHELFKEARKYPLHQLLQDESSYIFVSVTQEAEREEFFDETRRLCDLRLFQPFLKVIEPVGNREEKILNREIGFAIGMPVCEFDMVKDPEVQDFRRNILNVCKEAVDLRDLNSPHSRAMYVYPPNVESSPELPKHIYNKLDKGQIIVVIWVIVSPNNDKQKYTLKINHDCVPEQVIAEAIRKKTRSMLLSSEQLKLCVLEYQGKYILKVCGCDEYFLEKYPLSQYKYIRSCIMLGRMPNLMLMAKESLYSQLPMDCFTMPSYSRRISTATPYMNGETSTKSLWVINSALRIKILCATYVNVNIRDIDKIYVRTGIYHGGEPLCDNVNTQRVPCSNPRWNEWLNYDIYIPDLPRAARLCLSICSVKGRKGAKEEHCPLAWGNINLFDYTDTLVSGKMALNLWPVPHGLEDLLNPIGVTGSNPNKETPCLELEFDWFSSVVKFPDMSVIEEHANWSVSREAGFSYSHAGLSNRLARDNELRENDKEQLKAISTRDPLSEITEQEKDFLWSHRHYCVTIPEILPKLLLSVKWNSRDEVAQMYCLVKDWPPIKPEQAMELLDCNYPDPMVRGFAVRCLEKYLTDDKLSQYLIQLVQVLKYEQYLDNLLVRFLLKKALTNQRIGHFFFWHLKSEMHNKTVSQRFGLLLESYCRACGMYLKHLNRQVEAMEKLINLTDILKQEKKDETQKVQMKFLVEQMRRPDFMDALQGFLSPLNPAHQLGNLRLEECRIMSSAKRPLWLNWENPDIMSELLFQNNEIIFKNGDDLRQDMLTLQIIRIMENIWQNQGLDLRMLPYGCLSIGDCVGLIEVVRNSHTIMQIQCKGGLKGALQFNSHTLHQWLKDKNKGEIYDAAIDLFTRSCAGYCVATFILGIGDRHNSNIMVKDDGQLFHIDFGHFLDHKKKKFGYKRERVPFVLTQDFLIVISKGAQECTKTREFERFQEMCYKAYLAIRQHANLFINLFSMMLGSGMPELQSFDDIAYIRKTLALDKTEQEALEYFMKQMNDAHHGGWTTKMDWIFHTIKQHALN
# Sequence (P27986 whole entry partner): as the sequence (P27986 whole entry partner, species assumed) above
# methodNotes: Inhibition of isolated enzyme (lipid kinase assay, [γ33P]ATP, TLC)
# runConditions: recombinant enzyme, 100 μM ATP, 1 hr room temperature, average of two experiments

> print(dat)
                                inputsmiles  propertymeasured  valueobserved
1  COc1cccc2c1nc(C(F)F)n2-c1nc(-c2ccc(N)nc2)nc(N2CCOCC2)n1              IC50       < 100 nM

Record IC50 per entry; entries follow.
1. COc1cccc2c1nc(C(F)F)n2-c1nc(N2CCOCC2)nc(N(C)c2cccnc2)n1
2. COc1cccc2c1nc(C(F)F)n2-c1nc(Nc2cnc(Cl)nc2)nc(N2CCOCC2)n1
3. COc1cc(N)cc2c1nc(C(F)F)n2-c1nc(N2CCOCC2)nc(-n2cccn2)n1
4. COc1cccc2c1nc(C(F)F)n2-c1nc(Nc2cccnn2)nc(N2CCOCC2)n1
5. FC(F)c1nc2ccccc2n1-c1nc(Nc2cccnc2)nc(N2CCOCC2)n1

[A]
1: < 100 nM; 2: < 100 nM; 3: < 100 nM; 4: < 100 nM; 5: < 100 nM

Record IC50 per entry; entries follow.
1. COc1cccc2c1nc(C(F)F)n2-c1nc(Nc2ccc(F)nc2)nc(N2CCOCC2)n1
2. FC(F)c1nc2ccccc2n1-c1nc(Nc2ncccn2)nc(N2CCOCC2)n1
3. FC(F)c1nc2ccccc2n1-c1nc(NCc2cccnc2)nc(N2CCOCC2)n1
4. COc1cc(N)cc2c1nc(C(F)F)n2-c1nc(-c2cn[nH]c2)nc(N2CCOCC2)n1
5. FC(F)c1nc2ccccc2n1-c1nc(-c2cccnc2)nc(N2CCOCC2)n1
6. COc1cccc2c1nc(C(F)F)n2-c1nc(-c2cccnc2)cc(N2CCOCC2)n1

[A]
1: < 100 nM; 2: 100 to 1000 nM; 3: 100 to 1000 nM; 4: < 100 nM; 5: < 100 nM; 6: < 100 nM

Record IC50 per entry; entries follow.
1. FC(F)c1nc2ccccc2n1-c1nc(-c2cncnc2)cc(N2CCOCC2)n1
2. FC(F)c1nc2ccccc2n1-c1nc(Nc2cnc3ccccc3c2)nc(N2CCOCC2)n1
3. COc1cccc2c1nc(C(F)F)n2-c1nc(-c2cncnc2)cc(N2CCOCC2)n1
4. COc1cccc2c1nc(C(F)F)n2-c1nc(Nc2ccc(N(C)C)nc2)nc(N2CCOCC2)n1
5. COc1cccc2c1nc(C(F)F)n2-c1nc(N2CCOCC2)nc(-n2cccn2)n1

[A]
["100 to 1000 nM", "100 to 1000 nM", "< 100 nM", "< 100 nM", "< 100 nM"]
